// values below are reported protein stability index
B1: TFE3 (parent)
chain: FPSDHLGDLGDPFHLGLEDILMEE

- Variants of: B1
- Test Method Notes: protein stability index of a GFP-peptide fusion (GPS, HEK-293T) (PSI 1-6); higher = more stable;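 note: lentivirally expressed fusions sorted by FACS into six bins by GFP to DsRed ratio, PSI derived from sequencing read proportions per bin multiplied by bin number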
- Test Settings: c terminus: a fixed tail appended

Mutation Key: L17V
protein stability index: 3.09
//
Mutation Key: L15H
protein stability index: 3.93
//
Mutation Key: F1V
protein stability index: 4.88
//
Mutation Key: D11R
protein stability index: 3.72
//
Mutation Key: H14D
protein stability index: 4.61
//
Mutation Key: M22Y
protein stability index: 3.13
//
Mutation Key: G10M
protein stability index: 3.33
//
Mutation Key: L6N
protein stability index: 3.85
//
Mutation Key: D11C
protein stability index: 2.74
//
Mutation Key: D19K
protein stability index: 3.29
//
Mutation Key: F1N
protein stability index: 4.91
//
Mutation Key: L15V
protein stability index: 3.24
//
Mutation Key: G16R
protein stability index: 2.7
//
Mutation Key: G10R
protein stability index: 3.3
//
Mutation Key: F1A
protein stability index: 5.42
//
Mutation Key: D19R
protein stability index: 2.77
//
Mutation Key: L6T
protein stability index: 3.79
//
Mutation Key: G16H
protein stability index: 3.25
//
Mutation Key: I20P
protein stability index: 3.77
//
Mutation Key: P2H
protein stability index: 1.84
//
Mutation Key: F13L
protein stability index: 4.25
//
Mutation Key: E24I
protein stability index: 1.97
//
Mutation Key: L6G
protein stability index: 3.64
//
Mutation Key: D8V
protein stability index: 3.1
//
Mutation Key: I20V
protein stability index: 3.48
//
Mutation Key: D4W
protein stability index: 1.7
//
Mutation Key: D19G
protein stability index: 3.46
//
Mutation Key: E24C
protein stability index: 2.96
//
Mutation Key: L15W
protein stability index: 3.49
//
Mutation Key: L17D
protein stability index: 4.5
//
Mutation Key: E18M
protein stability index: 2.62
//
Mutation Key: D4S
protein stability index: 2.51
//
Mutation Key: P2Q
protein stability index: 2.63
//
Mutation Key: M22Q
protein stability index: 3.75
//
Mutation Key: P12G
protein stability index: 4.1
//
Mutation Key: D4K
protein stability index: 1.87
//
Mutation Key: G10L
protein stability index: 3.05
//
Mutation Key: E18T
protein stability index: 2.72
//
Mutation Key: H14G
protein stability index: 4.14
//
Mutation Key: D4C
protein stability index: 2.33
//
Mutation Key: D19N
protein stability index: 3.06
//
Mutation Key: E24T
protein stability index: 2.95
//
Mutation Key: H5V
protein stability index: 3.87
//
Mutation Key: F1M
protein stability index: 4.82
//
Mutation Key: L6F
protein stability index: 3.16
//
Mutation Key: F13W
protein stability index: 1.76
//
Mutation Key: G10D
protein stability index: 3.37
//
Mutation Key: L6C
protein stability index: 3.42
//
Mutation Key: P12V
protein stability index: 3.5
//
Mutation Key: F13Q
protein stability index: 4.61
//
Mutation Key: L21E
protein stability index: 4.28
//
Mutation Key: D8M
protein stability index: 2.96
//
Mutation Key: G16N
protein stability index: 3.34
//
Mutation Key: S3R
protein stability index: 2.6
//
Mutation Key: I20C
protein stability index: 3.84
//
Mutation Key: H5Y
protein stability index: 3.18
//
Mutation Key: S3W
protein stability index: 2.2
//
Mutation Key: D8T
protein stability index: 2.36
//
Mutation Key: F13K
protein stability index: 4.89
//
Mutation Key: P12N
protein stability index: 4.3
//
Mutation Key: E18R
protein stability index: 2.28
//
Mutation Key: M22W
protein stability index: 3.16
//
Mutation Key: L15G
protein stability index: 3.63
//
Mutation Key: S3I
protein stability index: 3.02
//
Mutation Key: D8L
protein stability index: 2.33
//
Mutation Key: E24M
protein stability index: 2.62
//
Mutation Key: L6E
protein stability index: 3.96
//
Mutation Key: E23Y
protein stability index: 2.3
//
Mutation Key: F13S
protein stability index: 4.87
//
Mutation Key: L15Q
protein stability index: 3.87
//
Mutation Key: G10H
protein stability index: 2.95
//
Mutation Key: M22T
protein stability index: 3.72
//
Mutation Key: S3D
protein stability index: 4.07
//
Mutation Key: D11P
protein stability index: 3.87
//
Mutation Key: D11W
protein stability index: 1.89
//
Mutation Key: I20D
protein stability index: 4.26
//
Mutation Key: G10I
protein stability index: 3.04
//
Mutation Key: D19Y
protein stability index: 1.91
//
Mutation Key: E23G
protein stability index: 2.47
//
Mutation Key: I20H
protein stability index: 3.92
//
Mutation Key: D4E
protein stability index: 3.77
//
Mutation Key: L9I
protein stability index: 3.54
//
Mutation Key: G10Y
protein stability index: 2.21
//
Mutation Key: H14V
protein stability index: 3.04
//
Mutation Key: H14A
protein stability index: 4
//
Mutation Key: H14I
protein stability index: 3.44
//
Mutation Key: G16F
protein stability index: 2.16
//
Mutation Key: M22D
protein stability index: 4.26
//
Mutation Key: E23W
protein stability index: 2.56
//
Mutation Key: E24K
protein stability index: 2.59
//
Mutation Key: L9V
protein stability index: 3.48
